Listed compounds paired with reported cell viability
System: P12-Ichikawa
Assay: cell viability relative to DMSO control; higher = less cytotoxic
Details: HPLM + 10% dialyzed FBS; 48 h; 0.00234 µM
Attribute Measured: cell viability (%)

compound="CCOC(=O)C/1=C(C)/NC(=S)NC1C2=CC=CC(=C2)O (centres undefined)" attribute_measured="cell viability" unit_string=% measured_result=115
compound=COc1cc(N2CCC(C(N)=O)CC2)ccc1Nc1nc(N)c(Cl)c(Nc2ccccc2[S+](=O)([O-])C(C)C)n1 attribute_measured="cell viability" unit_string=% measured_result=97.4
compound=Nc1ccccc1NC(=O)c1ccc(CNc2nccc(-c3cccnc3)n2)cc1 attribute_measured="cell viability" unit_string=% measured_result=107
compound=O=C1\C=C(/OC2=C1C=CC=C2C3=CC=CC=C3)N4CCOCC4 attribute_measured="cell viability" unit_string=% measured_result=93
compound=CNC(=O)c1cccc(-c2ccc3c(N4CCOC[C@@H]4C)nc(N4CCOC[C@@H]4C)nc3n2)c1 attribute_measured="cell viability" unit_string=% measured_result=106
compound=CC[C@]1(O)C[C@H]2CN(CCC3=C([NH]C4=C3C=CC=C4)[C@@](C2)(C(=O)OC)C5=CC6=C(C=C5OC)N(C=O)[C@H]7[C@](O)([C@H](OC(C)=O)[C@]8(CC)\C=C/C[N@@]9CC[C@]67[C@H]89)C(=O)OC)C1 attribute_measured="cell viability" unit_string=% measured_result=117
compound=COc1cc2c(N3CCN(C(=O)Nc4ccc(OC(C)C)cc4)CC3)ncnc2cc1OCCCN1CCCCC1 attribute_measured="cell viability" unit_string=% measured_result=92.6
compound=ClC1=CC=C(CCCOC/2=N/NC(=O)C(=C2NCC3=CN=CC=C3)/Br)C=C1 attribute_measured="cell viability" unit_string=% measured_result=115
compound=CN(C)Cc1ccc(-c2nc3cccc4c3n2CCNC4=O)cc1 attribute_measured="cell viability" unit_string=% measured_result=100

// data source = the supplement of paper PMC11451515
